# Tested on: SMMC-7721
# test.name: Cytotoxicity against human SMMC7721 cells assessed as reduction in cell viability incubated for 24 hrs by MTT assay
# Type: functional, cell-based
# setup.conditions: SMMC-7721, 24 h
Field: pIC50. Provide a value for each of the compounds that follow.
As a rule, pIC50 stands for the negative log10 of the concentration, concentration in M.

# query: pIC50 of entry COc1cc(/C=C2\CN(C)C/C(=C\c3ccncc3)C2=O)cc(OC)c1OC
5.04

# query: pIC50 of entry CC(=O)Nc1ccc(S(=O)(=O)N2C/C(=C\c3ccncc3)C(=O)/C(=C/c3ccccc3C(F)(F)F)C2)cc1
5.24

# query: pIC50 of entry O=C1/C(=C/c2cccnc2)CN(S(=O)(=O)c2ccc(Br)cc2)C/C1=C\c1ccccc1C(F)(F)F
5.24

# query: pIC50 of entry O=C1/C(=C/c2ccncc2)CN(S(=O)(=O)c2ccc(Br)cc2)C/C1=C\c1ccccc1C(F)(F)F
4.98

* * *

# Tested on: SMMC-7721
# test.name: Cytotoxicity against human SMMC7721 cells assessed as reduction in cell viability incubated for 24 hrs by MTT assay
# Assay type: functional, cell-based
# setup.conditions: SMMC-7721, 24 h
experimental.endpoint: IC50

Any idea what IC50 came out for O=C1/C(=C/c2cccnc2)CN(S(=O)(=O)c2ccc(F)cc2)C/C1=C\c1ccccc1F on SMMC-7721?
9.9 µM

Any idea what IC50 came out for CC(=O)Nc1ccc(S(=O)(=O)N2C/C(=C\c3cccnc3)C(=O)/C(=C/c3ccccc3F)C2)cc1 on SMMC-7721?
10.9 µM

Any idea what IC50 came out for Cc1ccc(S(=O)(=O)N2C/C(=C\c3ccncc3)C(=O)/C(=C/c3ccccc3C(F)(F)F)C2)cc1 on SMMC-7721?
5.59 µM

Any idea what IC50 came out for O=C1/C(=C/c2ccncc2)CN(S(=O)(=O)c2ccccc2)C/C1=C\c1ccccc1F on SMMC-7721?
17.5 µM

Any idea what IC50 came out for O=C1/C(=C/c2cccnc2)CN(S(=O)(=O)c2ccc(F)cc2)C/C1=C\c1ccccc1C(F)(F)F on SMMC-7721?
6.39 µM

Any idea what IC50 came out for O=C1/C(=C/c2ccncc2)CN(S(=O)(=O)c2ccc(Cl)cc2)C/C1=C\c1ccccc1F on SMMC-7721?
9.6 µM

Any idea what IC50 came out for O=C1/C(=C/c2ccncc2)CN(S(=O)(=O)c2ccc([N+](=O)[O-])cc2)C/C1=C\c1ccccc1C(F)(F)F on SMMC-7721?
> 20 µM

Any idea what IC50 came out for O=C1/C(=C/c2ccncc2)CN(S(=O)(=O)c2ccc([N+](=O)[O-])cc2)C/C1=C\c1ccccc1F on SMMC-7721?
15.8 µM

* * *

# System: HepG2
# test.name: Cytotoxicity against human HepG2 cells assessed as reduction in cell viability incubated for 24 hrs by MTT assay
# Format: functional, cell-based
# setup.conditions: HepG2, 24 h
experimental.endpoint: IC50 (µM)
All answers are understood in µM, so give the number only.

# query: IC50 of entry CN1C/C(=C\c2ccc(C#N)cc2)C(=O)/C(=C/c2cccnc2)C1
12.7

# query: IC50 of entry N#Cc1ccc(S(=O)(=O)N2C/C(=C\c3ccncc3)C(=O)/C(=C/c3ccccc3F)C2)cc1
4.5

# query: IC50 of entry O=C1/C(=C/c2ccncc2)CN(S(=O)(=O)c2ccc(Br)cc2)C/C1=C\c1ccccc1F
9.3

# query: IC50 of entry O=C1/C(=C/c2cccnc2)CN(S(=O)(=O)c2ccc(Cl)cc2)C/C1=C\c1ccccc1F
12.4

# query: IC50 of entry O=C1/C(=C/c2cccnc2)CN(S(=O)(=O)c2ccc(F)cc2)C/C1=C\c1ccccc1C(F)(F)F
2.34

# query: IC50 of entry CN1C/C(=C\c2ccncc2)C(=O)/C(=C/c2ccc(F)cc2Br)C1
9.2

# query: IC50 of entry COc1cc(/C=C/C(=O)CC(=O)/C=C/c2ccc(O)c(OC)c2)ccc1O
17.4

# query: IC50 of entry O=C1/C(=C/c2ccncc2)CN(S(=O)(=O)c2ccc([N+](=O)[O-])cc2)C/C1=C\c1ccccc1C(F)(F)F
13.4

# query: IC50 of entry O=C1/C(=C/c2ccncc2)CN(S(=O)(=O)c2ccc(Br)cc2)C/C1=C\c1ccccc1C(F)(F)F
14.5

# query: IC50 of entry O=C1/C(=C/c2cccnc2)CNC/C1=C\c1ccccc1F
21

# query: IC50 of entry CC(=O)Nc1ccc(S(=O)(=O)N2C/C(=C\c3cccnc3)C(=O)/C(=C/c3ccccc3F)C2)cc1
4.56

# query: IC50 of entry Cc1ccc(S(=O)(=O)N2C/C(=C\c3ccncc3)C(=O)/C(=C/c3ccccc3F)C2)cc1
9.7

# query: IC50 of entry O=C1/C(=C/c2cccnc2)CN(S(=O)(=O)c2ccc(Br)cc2)C/C1=C\c1ccccc1C(F)(F)F
2.73

# query: IC50 of entry CN1C/C(=C\c2ccncc2)C(=O)/C(=C/c2ccccc2F)C1
4.6

# query: IC50 of entry O=C1/C(=C/c2ccncc2)CN(S(=O)(=O)c2ccc(F)cc2)C/C1=C\c1ccccc1F
20.3

# query: IC50 of entry CC(=O)Nc1ccc(S(=O)(=O)N2C/C(=C\c3cccnc3)C(=O)/C(=C/c3ccccc3C(F)(F)F)C2)cc1
4.33

# query: IC50 of entry COc1cc(/C=C2\CN(C)C/C(=C\c3cccnc3)C2=O)cc(OC)c1
6.91

# query: IC50 of entry O=C1/C(=C/c2ccncc2)CN(S(=O)(=O)c2ccc(Cl)cc2)C/C1=C\c1ccccc1F
5.3

# query: IC50 of entry O=C1/C(=C/c2cccnc2)CN(S(=O)(=O)c2ccc(C(F)(F)F)cc2)C/C1=C\c1ccccc1F
2.4

# query: IC50 of entry O=C1/C(=C/c2ccncc2)CN(S(=O)(=O)c2ccc([N+](=O)[O-])cc2)C/C1=C\c1ccccc1F
11.3

# query: IC50 of entry CC(=O)Nc1ccc(S(=O)(=O)N2C/C(=C\c3ccncc3)C(=O)/C(=C/c3ccccc3F)C2)cc1
11.7

# query: IC50 of entry O=C1/C(=C/c2ccncc2)CNC/C1=C\c1ccccc1F
8.2

# query: IC50 of entry Cc1ccc(S(=O)(=O)N2C/C(=C\c3cccnc3)C(=O)/C(=C/c3ccccc3F)C2)cc1
4.2

# query: IC50 of entry N#Cc1ccc(S(=O)(=O)N2C/C(=C\c3cccnc3)C(=O)/C(=C/c3ccccc3C(F)(F)F)C2)cc1
5.06

# query: IC50 of entry COc1cc(/C=C2\CN(C)C/C(=C\c3ccncc3)C2=O)cc(OC)c1OC
9.8

# query: IC50 of entry O=C1/C(=C/c2ccncc2)CN(S(=O)(=O)c2ccc(C(F)(F)F)cc2)C/C1=C\c1ccccc1C(F)(F)F
3.24

# query: IC50 of entry CN1C/C(=C\c2ccncc2)C(=O)/C(=C/c2ccccc2C(F)(F)F)C1
3.3

# query: IC50 of entry Cc1ccc(S(=O)(=O)N2C/C(=C\c3ccncc3)C(=O)/C(=C/c3ccccc3C(F)(F)F)C2)cc1
4.64

# query: IC50 of entry O=C1/C(=C/c2ccncc2)CNC/C1=C\c1ccccc1C(F)(F)F
6.13

# query: IC50 of entry N#Cc1ccc(S(=O)(=O)N2C/C(=C\c3ccncc3)C(=O)/C(=C/c3ccccc3C(F)(F)F)C2)cc1
5.92

# query: IC50 of entry COc1ccc(/C=C2\CN(C)C/C(=C\c3ccncc3)C2=O)c(OC)c1OC
3.56

# query: IC50 of entry O=C1/C(=C/c2cccnc2)CN(S(=O)(=O)c2ccccc2)C/C1=C\c1ccccc1C(F)(F)F
5.37
